Data origin: ChEMBL document CHEMBL5356951

// reported MIC for each item listed
Tested on: Acinetobacter baumannii
Test: Antibacterial activity against multidrug-resistant Acinetobacter baumannii assessed as bacterial growth inhibition by broth microdilution assay
Type: functional
The answer should read as a number with its unit following.

compound: CC(C)CCSSC[C@@H](N)C(=O)N[C@H](C(=O)N[C@H](CO)C(=O)N[C@H]1CCNC(=O)[C@H]([C@@H](C)O)NC(=O)[C@H](CCN)NC(=O)[C@H](CCN)NC(=O)[C@H](CC(C)C)NC(=O)[C@@H](Cc2ccccc2)NC(=O)[C@H](CCN)NC1=O)[C@@H](C)O
readout: MIC
result: 0.5 µg/mL

// query Dear colleague, please send me the reported MIC for CC(C)C[C@@H]1NC(=O)[C@@H](Cc2ccccc2)NC(=O)[C@H](CCN)NC(=O)[C@@H](NC(=O)[C@@H](CN)NC(=O)[C@@H](NC(=O)[C@H](N)CSSCc2cccc(Cl)c2)[C@@H](C)O)CCNC(=O)[C@H]([C@@H](C)O)NC(=O)[C@H](CCN)NC(=O)[C@H](CCN)NC1=O when you can.
// result 0.5 µg/mL

// query Dear colleague, please send me the reported MIC for CC(C)CCSSC[C@@H](N)C(=O)N[C@H](C(=O)N[C@H](CN)C(=O)N[C@H]1CCNC(=O)[C@H]([C@@H](C)O)NC(=O)[C@H](CCN)NC(=O)[C@H](CCN)NC(=O)[C@H](CC(C)C)NC(=O)[C@@H](Cc2ccccc2)NC(=O)[C@H](CCN)NC1=O)[C@@H](C)O when you can.
// result 0.25 µg/mL
